target: Human complement C1s enzyme (Homo sapiens (Human), UniProt P09871); experiment: Human C1s enzyme assay; format: biochemical; conditions: Human C1s enzyme assay of Example 3; read-out: IC50 (Stars)
Sequence (P09871 438-688 limits assumed): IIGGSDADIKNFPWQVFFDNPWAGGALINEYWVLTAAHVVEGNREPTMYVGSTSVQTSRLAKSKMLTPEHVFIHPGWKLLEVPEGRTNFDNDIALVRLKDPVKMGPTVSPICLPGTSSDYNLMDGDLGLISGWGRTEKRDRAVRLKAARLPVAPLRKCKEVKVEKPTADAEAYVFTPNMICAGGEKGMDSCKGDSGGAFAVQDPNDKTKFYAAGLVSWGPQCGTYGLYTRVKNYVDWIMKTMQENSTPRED
Sequence (P09871 16-437 partner limits assumed): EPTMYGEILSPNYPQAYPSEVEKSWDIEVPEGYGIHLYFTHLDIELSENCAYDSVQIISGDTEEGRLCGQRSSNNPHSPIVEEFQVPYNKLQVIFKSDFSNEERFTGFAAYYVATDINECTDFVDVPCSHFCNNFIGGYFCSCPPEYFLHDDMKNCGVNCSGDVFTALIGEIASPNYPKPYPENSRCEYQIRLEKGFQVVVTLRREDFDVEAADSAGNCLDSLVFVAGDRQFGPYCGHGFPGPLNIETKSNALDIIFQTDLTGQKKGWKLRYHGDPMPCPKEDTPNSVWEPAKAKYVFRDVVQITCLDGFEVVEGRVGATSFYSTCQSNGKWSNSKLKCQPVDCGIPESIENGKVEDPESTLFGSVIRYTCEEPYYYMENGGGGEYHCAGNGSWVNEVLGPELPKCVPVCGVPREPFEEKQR
Attribute: IC50

Reference set, count: 5
[[record]]
molecule = "C[C@@H](NC(=O)[C@@H]1CC2(CN1C(=O)CNC(=O)c1ccc3c(c1)-c1ccccc1C3(F)F)OCCO2)c1cc(-c2cncnc2)cs1"
test_system = "Human complement C1s enzyme (Homo sapiens (Human), UniProt P09871)"
result = "> 1000 nM"

[[record]]
molecule = "COC[C@@]1(F)C[C@@H](C(=O)NCc2ccc(C(=N)N)s2)N(C(=O)CNC(=O)c2ccc(Oc3ccc(F)cc3)cc2)C1"
test_system = "Human complement C1s enzyme (Homo sapiens (Human), UniProt P09871)"
result = "< 100 nM"

[[record]]
molecule = "N=C(N)c1csc(CNC(=O)[C@@H]2CC3(CN2C(=O)CNC(=O)c2ccc(-c4ccc(F)cc4)cc2)OCCO3)c1"
test_system = "Human complement C1s enzyme (Homo sapiens (Human), UniProt P09871)"
result = "< 100 nM"

[[record]]
molecule = "C[C@@H](NC(=O)[C@@H]1CC2(CN1C(=O)CNC(=O)c1ccc3oc4ccccc4c3c1)OCCO2)c1cc(C(=N)N)cs1"
test_system = "Human complement C1s enzyme (Homo sapiens (Human), UniProt P09871)"
result = "< 100 nM"

[[record]]
molecule = "N=C(N)c1csc(CNC(=O)[C@@H]2CC3(CN2C(=O)CNC(=O)c2ccc4c(c2)-c2ccccc2C4=O)OCCO3)c1"
test_system = "Human complement C1s enzyme (Homo sapiens (Human), UniProt P09871)"
result = "< 100 nM"


Next compound, IC50 to be filled in.
Please fill in: IC50 reported for Nc1cccc(-c2csc(CNC(=O)[C@@H]3CC4(CN3C(=O)CNC(=O)c3ccc(Oc5ccc(F)cc5)cc3)OCCO4)c2)n1 = > 1000 nM

====

target: Human complement C1s enzyme (Homo sapiens (Human), UniProt P09871); assay: Human C1s enzyme assay; format: biochemical; conditions: Human C1s enzyme assay of Example 3; read-out: IC50 (Stars)
The molecules listed here are annotated with their IC50.

Form field IC50 for item Cc1ccc(Oc2ccc(C(=O)NCC(=O)N3C[C@@](F)(CF)C[C@H]3C(=O)N[C@H](C)c3cc(C(=N)N)cs3)cc2)cc1 [Compound 14] on Human complement C1s enzyme (Homo sapiens (Human), UniProt P09871): < 100 nM

For the molecule C[C@@H](NC(=O)[C@@H]1C[C@]2(C)C[C@@H]2N1C(=O)CNC(=O)c1ccc2c(c1)-c1ccccc1C2(F)F)c1cc(C(=N)N)cs1 [Compound 4] , the measured IC50 on Human complement C1s enzyme (Homo sapiens (Human), UniProt P09871) was < 100 nM

The value of IC50 recorded for C[C@@H](NC(=O)[C@@H]1C[C@](F)(CN(C)C)CN1C(=O)CNC(=O)c1ccc2c(c1)-c1ccccc1C2(F)F)c1cc(C(=N)N)cs1 [Compound 36] when tested on Human complement C1s enzyme (Homo sapiens (Human), UniProt P09871) reads < 100 nM

====

A collection of compounds and their measured pIC50
target: UniProt:P09871; assay: Human C1s enzyme assay; assay type: biochemical; conditions: Human complement C1s enzyme 1.16 nM, substrate Z-L-Lys-SBzl 100 μM, assay of Example 3; read-out: IC50 (Stars)
pIC50: −log10 of the molar value.

The examples below pair each entry with its known result.
[[record]]
molecule = "C[C@@H](NC(=O)[C@@H]1CC2(CN1C(=O)CNC(=O)c1ccc3c(c1)[nH]c1ccccc13)OCCO2)c1cc(C(=N)N)cs1"
result = "> 7.00"

[[record]]
molecule = "COC[C@@]1(F)C[C@@H](C(=O)N[C@H](C)c2cc(C(=N)N)cs2)N(C(=O)CNC(=O)c2ccc3c(c2)oc2ccccc23)C1"
result = "> 7.00"

[[record]]
molecule = "N=C(N)c1csc(CNC(=O)[C@@H]2CC3(CN2C(=O)CN2CCc4cc(-c5ccc(F)cc5F)ccc4C2=O)OCCO3)c1"
result = "> 7.00"

[[record]]
molecule = "C[C@@H](NC(=O)[C@@H]1C[C@](F)(CF)CN1C(=O)CNC(=O)c1ccc2c(c1)C(F)(F)c1ccccc1-2)c1cc(C(=N)N)cs1"
result = "> 7.00"


Memo: C[C@@H](NC(=O)[C@@H]1C[C@]2(COCCN(C)C)C[C@@H]2N1C(=O)CNC(=O)c1ccc2c(c1)-c1ccccc1C2(F)F)c1cc(C(=N)N)cs1 , reported pIC50: > 7.00

Documented pIC50 of Cc1ccc(-c2ccc(C(=O)NCC(=O)N3CC4(C[C@H]3C(=O)NCc3cc(C(=N)N)cs3)OCCO4)cc2)cc1F : > 7.00

Per the record, N=C(N)c1csc(CNC(=O)[C@@H]2CC3(CN2C(=O)CNC(=O)c2ccc(-c4ccc(F)nc4)cc2)OCCO3)c1 has pIC50 of > 7.00

Reported pIC50 ( C[C@@H](NC(=O)[C@@H]1C[C@@H](OC(F)F)CN1C(=O)CNC(=O)c1ccc2oc3ccccc3c2c1)c1cc(C(=N)N)cs1 ) = > 7.00

The measured pIC50 associated with N=C(N)c1csc(CNC(=O)[C@@H]2CC3(CN2C(=O)CNC(=O)c2ccc(-c4ccncc4F)cc2)OCCO3)c1 reads > 7.00

====

target: Human complement C1s enzyme (Homo sapiens (Human)); experiment: Human C1s enzyme assay; format: biochemical; settings: Human complement C1s enzyme 1.16 nM, substrate Z-L-Lys-SBzl 100 μM, assay of Example 3; read-out: IC50 (Stars)
pIC50: −log10 of the molar value.
# Lookup of reported pIC50 keyed by entry

Answered cases to consult:
[[record]]
compound = "C[C@@H](NC(=O)[C@@H]1C[C@@H](CO)CN1C(=O)CNC(=O)c1ccc2c(c1)-c1ccccc1C2(F)F)c1cc(C(=N)N)cs1 (relative stereo)"
endpoint_name = "pIC50"
result = "> 7.00"

[[record]]
compound = "COC[C@@]1(F)C[C@@H](C(=O)N[C@H](C)c2cc(C(=N)N)cs2)N(C(=O)CNC(=O)c2ccc3c(c2)-c2ccccc2S3(=O)=O)C1"
endpoint_name = "pIC50"
result = "> 7.00"

[[record]]
compound = "CC1c2ccccc2-c2ccc(C(=O)NCC(=O)N3C[C@H](S(C)(=O)=O)C[C@H]3C(=O)N[C@H](C)c3cc(C(=N)N)cs3)cc21 (stereo partly drawn)"
endpoint_name = "pIC50"
result = "> 7.00"


Value sought: pIC50, system Human complement C1s enzyme (Homo sapiens (Human)), item COC[C@@]1(F)C[C@@H](C(=O)N[C@H](C)c2cc(C(=N)N)cs2)N(C(=O)CNC(=O)c2ccc3c(c2)C(F)(F)c2ccccc2-3)C1 . Result: > 7.00

Query C[C@@H](NC(=O)c1ccc(-c2ccc(F)cc2F)cc1)C(=O)N1CC2(C[C@H]1C(=O)NCc1cc(C(=N)N)cs1)OCCO2 on Human complement C1s enzyme (Homo sapiens (Human)); pIC50 returned: > 7.00

Tested on Human complement C1s enzyme (Homo sapiens (Human)), the item C[C@@H](NC(=O)[C@@H]1CC2(CN1C(=O)Cc1ccc(-c3ccccc3)cc1)OCCO2)c1cc(C(=N)N)cs1 showed pIC50 equal to > 7.00

Simply: C[C@@H](NC(=O)[C@@H]1C[C@]2(CN(C)C)C[C@@H]2N1C(=O)CNC(=O)c1ccc2c(c1)-c1ccccc1C2(F)F)c1cc(C(=N)N)cs1 , Human complement C1s enzyme (Homo sapiens (Human)), pIC50 = > 7.00

# value of pIC50, Human complement C1s enzyme (Homo sapiens (Human)), item C[C@@H](NC(=O)[C@@H]1CC2(CN1C(=O)CN1Cc3ccc(-c4ccc(F)cc4F)cc3C1=O)OCCO2)c1cc(C(=N)N)cs1 = > 7.00

Considering C[C@@H](NC(=O)[C@@H]1C[C@@H](S(C)(=O)=O)CN1C(=O)CNC(=O)c1ccc2c(c1)oc1ccccc12)c1cc(C(=N)N)cs1 , its pIC50 with Human complement C1s enzyme (Homo sapiens (Human)) was recorded as > 7.00

The observed pIC50 for CCCCCCOC(=O)/N=C(/N)c1csc([C@@H](C)NC(=O)[C@@H]2C[C@](F)(CF)CN2C(=O)CNC(=O)c2ccc(Oc3ccc(F)cc3)cc2)c1 when tested with Human complement C1s enzyme (Homo sapiens (Human)) stands at > 7.00

====

Listing of recorded pIC50 by entry.
biological target: Human complement C1s enzyme (Homo sapiens (Human)); test: Human C1s enzyme assay; format: biochemical; conditions: Human C1s enzyme assay of Example 3; read-out: IC50 (Stars)
pIC50: −log10 of the molar value.

Example entries begin here.
[[record]]
molecule = "C[C@@H](NC(=O)[C@@H]1CC2(CN1C(=O)CNC(=O)c1cccc(-c3ccccc3)c1)OCCO2)c1cc(C(=N)N)cs1"
test_system = "Human complement C1s enzyme (Homo sapiens (Human))"
result = "> 7.00"

[[record]]
molecule = "Cc1cc(C(=O)NCC(=O)N2[C@H]3C[C@@]3(C)C[C@H]2C(=O)N[C@H](C)c2cc(C(=N)N)cs2)ccc1Oc1ccc(F)cc1"
test_system = "Human complement C1s enzyme (Homo sapiens (Human))"
result = "> 7.00"

[[record]]
molecule = "N=C(N)c1csc(CNC(=O)[C@@H]2CC3(CN2C(=O)CNC(=O)c2ccc(-c4ccc(C(F)(F)F)cc4)cc2)OCCO3)c1"
test_system = "Human complement C1s enzyme (Homo sapiens (Human))"
result = "> 7.00"

[[record]]
molecule = "NS(=O)(=O)c1cncc(-c2csc(CNC(=O)[C@@H]3CC4(CN3C(=O)CNC(=O)c3ccc(Oc5ccc(F)cc5)cc3)OCCO4)c2)c1"
test_system = "Human complement C1s enzyme (Homo sapiens (Human))"
result = "< 6.00"

[[record]]
molecule = "C[C@@H](NC(=O)[C@@H]1C[C@](F)(CF)CN1C(=O)CNC(=O)c1ccc2c(c1)-c1ccccc1C2)c1cc(C(=N)N)cs1"
test_system = "Human complement C1s enzyme (Homo sapiens (Human))"
result = "> 7.00"


Then there is this compound:
Looking up C[C@@H](NC(=O)[C@@H]1CC2(CN1C(=O)CNC(=O)c1ccc3c(c1)-c1ccccc1-3)OCCO2)c1cc(C(=N)N)cs1 , I found its pIC50 recorded as > 7.00
